Recorded Cholesterol-free media + simvastatin (0.04 μM) for the following molecules
# Tested on: NCI-H292 lung cancer cells
# Protocol text: FDA drug screening, complete media vs cholesterol-free media with simvastatin (TABLE 2)
# Format: cell-based, human
Where a name gives a salt, the structure may show the parent alone.
Quantity kind: Cholesterol-free media + simvastatin (0.04 μM)

INSERT INTO measurements (molecule, target_desc, val) VALUES
  ('O.O.O=C([O-])CC(O)(CC(=O)[O-])C(=O)[O-].[Na+].[Na+].[Na+] [Sodium citrate (dihydrate)]', 'NCI-H292 lung cancer cells', 1.04),
  ('COc1cc2c(c(OC)c1OC)-c1ccc(OC)c(=O)cc1[C@@H](NC(C)=O)CC2 [Colchicine]', 'NCI-H292 lung cancer cells', 0.1971),
  ('NC(=O)[C@@H]1C[C@]2(NC(=O)NC2=O)c2cc(F)ccc2O1 [Fidarestat]', 'NCI-H292 lung cancer cells', 1.63),
  ('CN1[C@@H]2CC[C@H]1C[C@@H](OC(=O)C(CO)c1ccccc1)C2 (stereo partly drawn) [Atropine (sulfate monohydrate)]', 'NCI-H292 lung cancer cells', 0.6465),
  ('O=C(O[C@H]1C[N+]2(CCCOc3ccccc3)CCC1CC2)C(O)(c1cccs1)c1cccs1.[Br-] [Aclidinium (Bromide)]', 'NCI-H292 lung cancer cells', 0.8781),
  ('CN(C)CCCN1c2ccccc2Sc2ccc(C(F)(F)F)cc21 [Triflupromazine (hydrochloride)]', 'NCI-H292 lung cancer cells', 0.02542),
  ('O=C(OCC(O)CO)c1ccccc1Nc1ccnc2cc(Cl)ccc12 (stereo not drawn) [Glafenine (hydrochloride)]', 'NCI-H292 lung cancer cells', 0.8957),
  ('Cc1ccc(C(=O)Nc2ccc(CN3CCN(C)CC3)c(C(F)(F)F)c2)cc1C#Cc1cnc2cccnn12 [Ponatinib]', 'NCI-H292 lung cancer cells', 0.4683),
  ('CCCSc1ccc2nc(NC(=O)OC)[nH]c2c1 [Albendazole]', 'NCI-H292 lung cancer cells', 1.236),
  ('Cc1nnc(C(=O)NC(C)(C)c2nc(C(=O)NCc3ccc(F)cc3)c(O)c(=O)n2C)o1 [Raltegravir (potassium salt)]', 'NCI-H292 lung cancer cells', 0.8687),
  ('CC(C)(C)CC(C)(C)c1ccc(OCCOCC[N+](C)(C)Cc2ccccc2)cc1 [Benzethonium chloride]', 'NCI-H292 lung cancer cells', 0.6785),
  ('COc1cccc(N(C)C(=S)Oc2ccc3c(c2)CCCC3)n1 [Liranaftate]', 'NCI-H292 lung cancer cells', 0.9604),
  ('O=C(O)c1ccccc1 [Benzoic acid]', 'NCI-H292 lung cancer cells', 1.277),
  ('C[N+]1(C)[C@@H]2CC(OC(=O)C(O)(c3cccs3)c3cccs3)C[C@H]1[C@@H]1O[C@@H]12.[Br-] (stereo partly drawn) [Tiotropium (Bromide)]', 'NCI-H292 lung cancer cells', 2.468),
  ('O=C([O-])c1ccccc1O.[Na+] [Sodium Salicylate]', 'NCI-H292 lung cancer cells', 1.29),
  ('OC(c1ccccc1)(c1ccccc1)C12CC[N+](CCOCc3ccccc3)(CC1)CC2.[Br-] [Umeclidinium (bromide)]', 'NCI-H292 lung cancer cells', 1.336),
  ('CC(C)OC(=O)[C@H](C)N[P@](=O)(CO[C@H](C)Cn1cnc2c(N)ncnc21)Oc1ccccc1 [Tenofovir alafenamide fumarate]', 'NCI-H292 lung cancer cells', 0.9223),
  ('CN[C@H](CC(C)C)C(=O)N[C@H]1C(=O)N[C@@H](CC(N)=O)C(=O)N[C@H]2C(=O)N[C@H]3C(=O)N[C@H](C(=O)N[C@H](C(=O)O)c4cc(O)cc(O)c4-c4cc3ccc4O)[C@H](O)c3ccc(c(Cl)c3)Oc3cc2cc(c3O[C@@H]2O[C@H](CO)[C@@H](O)[C@H](O)[C@H]2O[C@H]2C[C@](C)(N)[C@H](O)[C@H](C)O2)Oc2ccc(cc2Cl)[C@H]1O [Vancomycin (hydrochloride)]', 'NCI-H292 lung cancer cells', 0.8152);
